Inhibition Rate of Human PAI-1 Activity (%): recorded values
# TARGET: recombinant human PAI-1 (Homo sapiens, UniProt P05121)
# Sequence (P05121 24-402): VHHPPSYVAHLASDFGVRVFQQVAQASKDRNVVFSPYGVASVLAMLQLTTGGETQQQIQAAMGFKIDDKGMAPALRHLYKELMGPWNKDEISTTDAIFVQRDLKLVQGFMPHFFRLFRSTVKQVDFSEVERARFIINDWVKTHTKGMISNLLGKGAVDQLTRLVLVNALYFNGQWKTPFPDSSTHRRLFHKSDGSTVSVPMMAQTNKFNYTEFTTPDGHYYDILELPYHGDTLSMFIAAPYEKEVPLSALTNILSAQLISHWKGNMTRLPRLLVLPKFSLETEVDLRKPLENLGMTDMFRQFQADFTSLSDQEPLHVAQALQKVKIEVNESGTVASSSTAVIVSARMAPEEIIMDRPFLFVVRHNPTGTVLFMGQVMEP
# ASSAY_OVERVIEW: Test Example 1: human PAI-1 inhibitory activity (tPA fluorogenic substrate, pH7.5 Tris buffer)
# Type: biochemical
# Set-up: purchased Molecular Innovations, Inc
# EXPERIMENTAL_CONDITIONS: compound 10 μM; Tris buffer pH7.5
Counter-ions that a name gives are not always drawn.
Quick reminder: number only, in %, skip the unit.

Enquiry: Consider the compound `CCCCc1ccc(COc2ccc(-c3ccc(C(C)(C)C)cc3)cc2CCC(=O)O)cc1` and give its measured Inhibition Rate of Human PAI-1 Activity (%).
Return: 80

Enquiry: Record request: Inhibition Rate of Human PAI-1 Activity (%) value, item `O=C(O)CCc1cc(-c2ccc(OC(F)(F)F)cc2)ccc1OCc1ccccc1`
Return: 68

Enquiry: Entry under review: CC(C)(C)c1ccc(COc2ccc(-c3ccc(OC(F)(F)F)cc3)cc2NC(=O)C(=O)O)cc1 [Compound 6, sodium salt] . Reported Inhibition Rate of Human PAI-1 Activity (%)?
Return: 94

Enquiry: Dear colleague, I am looking for the recorded Inhibition Rate of Human PAI-1 Activity (%) of the following compound: `CC(C)(C)c1ccc(-c2ccc(OCc3ccc(C(F)(F)F)cc3)c(CCC(=O)O)c2)cc1`
Return: 71

Enquiry: Record request: Inhibition Rate of Human PAI-1 Activity (%) value, item `O=C(O)CCc1cc(-c2ccc(OC(F)(F)F)cc2)ccc1Oc1ccc(C(=O)O)cc1`
Return: 3

Enquiry: Consider the compound `CC(C)(C)c1ccc(COc2ccc(-c3ccccc3)cc2CCC(=O)O)cc1` and give its measured Inhibition Rate of Human PAI-1 Activity (%).
Return: 47

Enquiry: Using the record for `CC(C)(C)c1ccc(COc2ccc(-c3ccc(F)cc3)cc2/C=C/C(=O)O)cc1` , report its Inhibition Rate of Human PAI-1 Activity (%).
Return: 53

Enquiry: Inhibition Rate of Human PAI-1 Activity (%) for `CC(C)(C)c1ccc(-c2ccc(OCc3ccccc3)c(/C=C/C(=O)O)c2)cc1` ?
Return: 47

---

Catalogue of IC50 readings, one per entry.
# TARGET: recombinant human PAI-1 (Homo sapiens)
# ASSAY_OVERVIEW: biochemical
# Protocol: <Compotion of pH7.4 HEPES Buffer> • 0.1 M HEPES • 0.1 M NaCl • […] • 0.1% Polyethylene glycol 8,000 (Hampton Research Corporation) • 2 mM Dimethyldecylphoshine oxide [Apo-10] (Fluka Corporation) [Results]
Quick note: give the figure in µM, leave out the unit.

Enquiry: Which measured IC50 belongs to `CC(C)(C)c1ccc(COc2ccc(-c3ccc(OC(F)(F)F)cc3)cc2CC(=O)O)cc1` , tested on recombinant human PAI-1 (Homo sapiens)?
Return: 1.3

Enquiry: Give the reported IC50 for `CC(C)(C)c1ccc(Oc2ccc(-c3ccc(OC(F)(F)F)cc3)cc2CCC(=O)O)cc1` (system: recombinant human PAI-1 (Homo sapiens)).
Return: 1.17

Enquiry: Under recombinant human PAI-1 (Homo sapiens): IC50 value of `CC(C)(C)c1ccc(COc2ccc(-c3ccc(OC(F)(F)F)cc3)cc2CCC(=O)O)cc1` ?
Return: 1.27

---

# TARGET: recombinant human PAI-1 (Homo sapiens)
# ASSAY_OVERVIEW: Test Example 1: human PAI-1 inhibitory activity (tPA fluorogenic substrate, pH7.5 Tris buffer)
# Assay type: biochemical
# Design: purchased Molecular Innovations, Inc
# EXPERIMENTAL_CONDITIONS: compound 5 μM; Tris buffer pH7.5
QUANTITY: Inhibition Rate of Human PAI-1 Activity (%)
State just the number; it will be interpreted in %.

O=C(O)Cc1cc(-c2ccc(OC(F)(F)F)cc2)ccc1OCc1ccccc1 : 18

Enquiry: What measured Inhibition Rate of Human PAI-1 Activity (%) goes with `CC(C)(C)c1ccc(COc2ccc(-c3ccc(OC(F)(F)F)cc3)cc2/C=C\C(=O)O)cc1` ?
Return: 96

Enquiry: Which measured Inhibition Rate of Human PAI-1 Activity (%) value corresponds to `CC(C)(C)c1ccc(COc2ccc(-c3ccccc3OC(F)(F)F)cc2CCC(=O)O)cc1` ?
Return: 52

Enquiry: Look at this compound and give its reported Inhibition Rate of Human PAI-1 Activity (%). `COc1ccc(-c2ccc(OCc3ccc(C(C)(C)C)cc3)c(/C=C/C(=O)O)c2)cc1`
Return: 23

Enquiry: What value of Inhibition Rate of Human PAI-1 Activity (%) has been recorded for this entry: `CC(C)(C)c1ccc(COc2ccc(-c3ccccc3OC(F)(F)F)cc2/C=C/C(=O)O)cc1`
Return: 42

Enquiry: Inhibition Rate of Human PAI-1 Activity (%) for `CC(C)(C)c1ccc(-c2ccc(OCc3ccccc3)c(/C=C/C(=O)O)c2)cc1` ?
Return: 22

Enquiry: GET /values?readout=Inhibition Rate of Human PAI-1 Activity (%)&item= `CC(C)(C)c1ccc(Oc2ccc(-c3ccc(OC(F)(F)F)cc3)cc2/C=C\C(=O)O)cc1`
Return: 92

Enquiry: Fill in: Inhibition Rate of Human PAI-1 Activity (%) of `CC(C)(C)c1ccc(COc2ccc(-c3cccc(OC(F)(F)F)c3)cc2/C=C/C(=O)O)cc1` is ___
Return: 38

Source of measurements: patent US8044236B2
